log10 of Ki overview
# assay.system: Amine oxidase [flavin-containing] A (Rattus norvegicus, UniProt P21396)
# Sequence (P21396 whole entry): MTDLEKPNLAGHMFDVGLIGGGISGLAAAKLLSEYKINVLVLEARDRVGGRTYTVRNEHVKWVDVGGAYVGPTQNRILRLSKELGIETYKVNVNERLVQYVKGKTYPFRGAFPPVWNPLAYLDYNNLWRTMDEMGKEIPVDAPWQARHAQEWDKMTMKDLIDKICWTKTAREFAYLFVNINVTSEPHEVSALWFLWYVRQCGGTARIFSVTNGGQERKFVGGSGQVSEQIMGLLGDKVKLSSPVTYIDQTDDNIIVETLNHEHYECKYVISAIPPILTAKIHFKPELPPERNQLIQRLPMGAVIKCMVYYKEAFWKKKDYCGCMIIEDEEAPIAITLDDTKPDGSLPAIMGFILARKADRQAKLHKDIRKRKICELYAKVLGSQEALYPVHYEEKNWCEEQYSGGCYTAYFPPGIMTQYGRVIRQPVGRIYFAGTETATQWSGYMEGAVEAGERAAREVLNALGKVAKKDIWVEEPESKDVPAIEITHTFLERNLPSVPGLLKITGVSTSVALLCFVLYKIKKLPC
Structures can show the parent of a compound that is named as a salt.
measure: log10 of Ki (log10 of the value in nM)

> print(dat)
                                    compound      measure  result.value
 1    CCOc1ccc(CC(C)N)cc1 (stereo not given)  log10 of Ki          2.34
 2  CSc1ccc2cc(CC(C)N)ccc2c1 (stereo not given)  log10 of Ki          2.70
 3  CCCCOc1ccc(CNC(C)Cc2ccc(SC)cc2)cc1 (stereo not given)  log10 of Ki          4.95
 4  COc1ccc2cc(CC(C)N)ccc2c1 (stereo not given)  log10 of Ki          2.26
 5  CCOc1ccc2cc(CC(C)N)ccc2c1 (stereo not given)  log10 of Ki          2.65
 6   CC(N)Cc1ccc2ccccc2c1 (stereo not given)  log10 of Ki          2.62
 7  CSc1ccc(CC(C)N)cc1 (stereo not given) [4-METHYLTHIOAMPHETAMINE]  log10 of Ki          2.40
 8  CC(N)Cc1ccccc1 (stereo not given) [AMPHETAMINE SULFATE]  log10 of Ki          4.09
 9   CC(N)Cc1cccc2ccccc12 (stereo not given)  log10 of Ki          3.75
10  COc1ccc(CC(C)N)cc1 (stereo not given) [PARA-METHOXYAMPHETAMINE]  log10 of Ki          2.40
11  CCCCOc1ccc2cc(CC(C)N)ccc2c1 (stereo not given)  log10 of Ki          3.18
12  CC(N)Cc1ccc2cc(OCc3ccccc3)ccc2c1 (stereo not given)  log10 of Ki          3.58
